- Test system: P. falciparum 3D7
- Assay text: In vitro anti-malarial activity, SYBR-Green I fluorescence assay, strain 3D7
- Assay type: cell-based
- Recorded conditions: Plasmodium falciparum, 3D7, Erythrocyte, 72 h, read-out: Inhibition IC50 mean ± SD
Property label: pIC50
Interpret pIC50 as the negative base-10 log of the concentration measured in mol/L.

Give its pIC50 value. Item: CCN(CC)CCCC(C)Nc1ccnc2cc(Cl)ccc12 (stereo not shown) [Chloroquine] 7.62

----------
Below, each entry is listed alongside its reported pIC50.
- System: P. falciparum Dd2
- Assay text: In vitro anti-malarial activity, SYBR-Green I fluorescence assay, strain Dd2
- Format: cell-based
- Recorded conditions: Plasmodium falciparum, DD2, Erythrocyte; infected human red blood cells, 72 h, DQ concentration for liposomes; read-out: Inhibition IC50 mean ± SD
Please treat pIC50 as minus the base-10 logarithm of the molar concentration.

>  <Compound>
C[C@@H]1CC[C@H]2[C@@H](C)C(=O)O[C@@H]3O[C@@]4(C)CC[C@@H]1[C@]32OO4 [Artemisinin]

>  <pIC50>
7.73

$$$$

State the recorded pIC50 for this entry: CCCCCCCCCCOc1cc2c(O)c(C(=O)OCC)cnc2cc1OCC [DQ in DMSO, Decoquinate] 8.80
